System: MEK6
Construct: gene MAP2K6
reported_conditions: concentration: 1 μM,replicates: in singlicate; n = 1;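 note: KINOMEscan kinase panel screen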
endpoint: %Inh (%)
# number only, unit % dropped from output

Query string: Specify %Inh for `COc1cccc(OC)c1C(=O)Nc1cccc(-c2nn3ccccc3c2-c2ccnc(Nc3cccc(F)c3)n2)c1` and stop.
Result string: 3

Query string: Specify %Inh for `Cn1ccc2ncnc(Oc3ccc(NC(=O)Nc4cccc(C(F)(F)F)c4)c(F)c3)c21` and stop.
Result string: 0

Query string: Specify %Inh for `C[C@@H](Oc1cc(-n2cnc3cc(-c4cnn(C)c4)ccc32)sc1C(N)=O)c1ccccc1Cl` and stop.
Result string: 15

Query string: Specify %Inh for `O=C(Nc1n[nH]c2cc(-c3ccco3)ccc12)C1CC1` and stop.
Result string: 0

Query string: Specify %Inh for `CN(c1cccc(CNc2nc(Nc3ccc4c(c3)CC(=O)N4)ncc2C(F)(F)F)c1)S(C)(=O)=O` and stop.
Result string: 0

Query string: Specify %Inh for `Cc1ccc(C(=O)Nc2ccc(Oc3ccc4nc(NC(=O)C5CC5)cn4c3)c(F)c2)c(=O)n1-c1ccccc1` and stop.
Result string: 0

Query string: Specify %Inh for `Cn1ccc2ncnc(Oc3ccc(NC(=O)Nc4cnn(C(C)(C)C)c4)c(Cl)c3)c21` and stop.
Result string: 0

Query string: Specify %Inh for `COC(=O)Nc1nc2cc(Oc3ccc(NC(=O)Nc4cc(C(F)(F)F)ccc4Cl)cc3)ccc2[nH]1.Cl` and stop.
Result string: 0

Query string: Specify %Inh for `CN1CCN(CCCNc2nccc(-c3c(-c4ccc(F)cc4)nn4cc(C(N)=O)ccc34)n2)CC1` and stop.
Result string: 0

Query string: Specify %Inh for `O=c1[nH]cc(-c2ccc(O)cc2)c2sc(-c3ccncc3)cc12` and stop.
Result string: 0

Query string: Specify %Inh for `Cl.Nc1n[nH]c2cc(-c3ccccn3)ccc12` and stop.
Result string: 0

Query string: Specify %Inh for `Cc1ccc(CC(=O)N2CCc3cc(-c4cn(C)c5ncnc(N)c45)ccc32)cc1` and stop.
Result string: 0

Query string: Specify %Inh for `O=C(Nc1ccccc1)c1cccc(Oc2ccc3nccn3n2)c1` and stop.
Result string: 0

Query string: Specify %Inh for `CC(=O)Nc1nc2cnc(Nc3cc(NC(=O)c4cccc(CC(C)(C)C#N)c4)ccc3C)nc2s1` and stop.
Result string: 0

Query string: Specify %Inh for `C[C@@H]1CNc2c(sc3ccc4nc(-c5ccc(O)cc5)ccc4c23)C(=O)N1` and stop.
Result string: 13

Query string: Specify %Inh for `CC(C)c1nc(-c2cccc(NS(=O)(=O)c3ccccc3)c2)c(-c2ccnc(Nc3ccc4c(c3)CN(C)CC4)n2)s1` and stop.
Result string: 26

Query string: Specify %Inh for `CS(=O)(=O)c1cccc(CNc2nc(Nc3ccc4c(c3)[C@@H]3C[C@@H]4CNC3=O)ncc2C(F)(F)F)c1` and stop.
Result string: 5

Query string: Specify %Inh for `COc1cccc(C2=C(Nc3cccc(Cl)c3)C(=O)NC2=O)c1` and stop.
Result string: 0

Query string: Specify %Inh for `O=C(Nc1cccc(C(F)(F)F)c1)c1cccc(Oc2ccc3nccn3n2)c1` and stop.
Result string: 0

----------
Test system: EPHA6
reported_conditions: concentration: 1 μM,replicates: in singlicate; n = 1
Quick rule for you: %Inh under 5% gets 1.0, anything else gets 0.0.

Query string: Record `COC(=O)Nc1nc2cc(Oc3ccc(NC(=O)Nc4cc(C(F)(F)F)ccc4Cl)cc3)ccc2[nH]1.Cl` : is its %Inh strictly below 5%?
Result string: 0.0

Query string: Record `Cc1ccn2nc(-c3ccc(F)cc3)c(-c3ccncc3)c2c1.Cl` : is its %Inh strictly below 5%?
Result string: 1.0

Query string: Record `Cc1ccc2c(-c3ccnc(Nc4ccc(C(F)(F)F)cc4)n3)cnn2n1` : is its %Inh strictly below 5%?
Result string: 0.0

Query string: Record `CSc1nccc(-c2c(-c3ccc(F)cc3)ncn2CCCN2CCOCC2)n1.Cl` : is its %Inh strictly below 5%?
Result string: 1.0

Query string: Record `COC(=O)c1cccc(NC(=O)NC2CCN(c3ccnc(NCc4ccc(F)cc4)n3)CC2)c1` : is its %Inh strictly below 5%?
Result string: 0.0

Query string: Record `CCn1c(-c2nonc2N)nc2cncc(Br)c21` : is its %Inh strictly below 5%?
Result string: 1.0

Query string: Record `C[C@@H]1CCN(C(=O)N2CCCC2)C[C@@H]1N(C)c1ncnc2[nH]ccc12` : is its %Inh strictly below 5%?
Result string: 0.0

Query string: Record `Cc1ccc(Nc2ccnc(Nc3ccc4c(c3)CS(=O)(=O)C4)n2)cc1O.Cl` : is its %Inh strictly below 5%?
Result string: 0.0

Query string: Record `CC(=O)Nc1ccc(-c2cc3ncnc(SCC(=O)O)c3s2)cc1` : is its %Inh strictly below 5%?
Result string: 0.0

Query string: Record `O=C1NCCc2[nH]c(-c3ccncc3)cc21` : is its %Inh strictly below 5%?
Result string: 0.0

Query string: Record `Cc1cccc(-c2nc(Nc3ccncc3)c3sccc3n2)n1` : is its %Inh strictly below 5%?
Result string: 0.0

Query string: Record `Cl.c1ccc(Oc2ccc(Nc3ccnc4cc(-c5ccc(CN6CCNCC6)o5)ccc34)cc2)nc1` : is its %Inh strictly below 5%?
Result string: 1.0

Query string: Record `O=C(NOCC1CC1)c1cc(Br)c(F)c(F)c1Nc1ccc(I)cc1Cl` : is its %Inh strictly below 5%?
Result string: 1.0

Query string: Record `Cn1ccc2ncnc(Oc3ccc(NC(=O)Nc4cccc(C(F)(F)F)c4)c(F)c3)c21` : is its %Inh strictly below 5%?
Result string: 0.0

Query string: Record `CS(=O)(=O)Nc1ccc(-c2ccnc3[nH]ccc23)cc1` : is its %Inh strictly below 5%?
Result string: 0.0

Query string: Record `O=C(Nc1ccccc1)c1cccc(Oc2ccc3nccn3n2)c1` : is its %Inh strictly below 5%?
Result string: 1.0

Query string: Record N#Cc1cccc(C(=O)NC2CCN(c3ccnc(Nc4ccc(F)cc4)n3)C2)c1 (centres unmarked) : is its %Inh strictly below 5%?
Result string: 1.0

Query string: Record COc1cc(Nc2nccc(N3CCC(NC(=O)c4cccc(C#N)c4)C3)n2)cc(OC)c1OC (centres unmarked) : is its %Inh strictly below 5%?
Result string: 1.0

Query string: Record `Nc1nccc(-c2ccc3c(N)n[nH]c3c2)n1` : is its %Inh strictly below 5%?
Result string: 1.0

Query string: Record `CN(c1cccc(CNc2nc(Nc3ccc4c(c3)CC(=O)N4)ncc2C(F)(F)F)c1)S(C)(=O)=O` : is its %Inh strictly below 5%?
Result string: 1.0

Query string: Record `CC(C)S(=O)(=O)N1CCN(Cc2ccc3c(c2)nc(NC(=O)c2ccsc2)n3C[C@H](O)c2ccccc2)CC1` : is its %Inh strictly below 5%?
Result string: 0.0

Query string: Record `Cc1ccc(CC(=O)N2CCc3cc(-c4cn(C)c5ncnc(N)c45)ccc32)cc1` : is its %Inh strictly below 5%?
Result string: 1.0

Query string: Record `Cc1n[nH]c2cc(Nc3ccnc(Nc4cccc(CN5CCOCC5)c4)n3)ccc12` : is its %Inh strictly below 5%?
Result string: 0.0

Query string: Record `C[C@@H](Oc1cc(-n2cnc3cc(-c4cnn(C)c4)ccc32)sc1C(N)=O)c1ccccc1Cl` : is its %Inh strictly below 5%?
Result string: 0.0

Query string: Record `O=C(Nc1ccc(Oc2ccc3nc(NC(=O)C4CC4)cn3n2)c(F)c1)c1cccn(-c2ccccc2)c1=O` : is its %Inh strictly below 5%?
Result string: 0.0

Query string: Record `CN1CCN(CCNc2nc3cc(Oc4ccc(NC(=O)Nc5cc(C(F)(F)F)ccc5F)cc4)ccc3[nH]2)CC1.Cl.Cl` : is its %Inh strictly below 5%?
Result string: 0.0

Query string: Record `CC(=O)Nc1nc2cnc(Nc3cc(NC(=O)c4cccc(CC(C)(C)C#N)c4)ccc3C)nc2s1` : is its %Inh strictly below 5%?
Result string: 0.0

Query string: Record `NC(=O)Nc1sc(-c2ccc(F)cc2)cc1C(N)=O` : is its %Inh strictly below 5%?
Result string: 0.0

Query string: Record `O=C(Nc1n[nH]c2cc(-c3ccco3)ccc12)C1CC1` : is its %Inh strictly below 5%?
Result string: 1.0

Query string: Record COc1ccc(Nc2nccc(N3CCC(NC(=O)c4cccc(C#N)c4)C3)n2)cc1 (centres unmarked) : is its %Inh strictly below 5%?
Result string: 1.0

Query string: Record `C[C@@H](Oc1cc(-n2cnc3ccc(-c4ccncc4)cc32)sc1C(N)=O)c1ccccc1Cl` : is its %Inh strictly below 5%?
Result string: 0.0

Query string: Record `CC(=O)c1c(-c2ccncc2)[nH]c(-c2ccncc2)c1C` : is its %Inh strictly below 5%?
Result string: 1.0

Query string: Record `O=C(Nc1cccc(Oc2ccc3nccn3n2)c1)Nc1cccc(C(F)(F)F)c1` : is its %Inh strictly below 5%?
Result string: 0.0

Query string: Record CC(C(=O)NC1CCN(c2ccnc(Nc3ccc(F)cc3)n2)C1)c1ccc(Cl)cc1 (centres unmarked) : is its %Inh strictly below 5%?
Result string: 1.0
